assay: Human HepG2 cell viability assay in 384 well format; format: toxicity, cell-based; parameters: dose 125 nL, time 70.5 hour; concentration not given beside the values; conditions: HepG2 cells, read-out: Inhibition
Reported metric: cytotoxicity at 70.5 h (%)
Numbers only, in %.

Please review the entries below; each comes with its answer.
Compound | Units label | Recorded number
CCc1cccc2c(CC(=O)N(C)CCN(C)C)c(C)[nH]c12 | % | -8.74
CC(C)CN1CC(c2nc(-c3ccsc3)c[nH]2)CC1=O (stereo unspecified) | % | -2.45
CN1CC(=O)N(c2ccsc2)CC12CCN(C(=O)c1cccn1C)C2 (stereo unspecified) | % | -5.46
Cc1cccc(CN2Cc3[nH]nc(COCC4CC4)c3C2)n1 | % | 3.89
Fc1cccc(N2CCCC3(CN(Cc4ccco4)CCO3)C2)c1 (stereo unspecified) | % | -11.7

# next compound below
Consider CCN1CC(C(=O)N(C)Cc2cc3cc(F)ccc3[nH]2)CC1=O (stereo unspecified) . Its measured cytotoxicity at 70.5 h is -0.954
